Please provide measured TGI for the entries that follow.
Test system: SNB-75 CNS
Test: NCI tumour cell line growth inhibition, 48 h

Q: Returns the measured TGI for the input compound. Input: `COc1ccc(CCNC(=O)c2ccc(NC3=C(Cl)C(=O)N(Cc4ccccc4)C3=O)cc2)cc1OC`
Result: > 100 µM

Q: Returns the measured TGI for the input compound. Input: CC(C)C(=O)Nc1nc2c(ncn2C2OC(CO)C(O)C2O)c(=O)[nH]1 (stereo unspecified)
Result: > 100 µM

Q: Returns the measured TGI for the input compound. Input: CC(O)CCCCC(O)CCC[C@H](O)[C@H]1CCC([C@H]2CCC([C@@H](O)CCCCCCCCCCCCC3=C[C@H](C)OC3=O)O2)O1 (stereo partly specified)
Result: 18.9 µM

Q: Returns the measured TGI for the input compound. Input: `Cc1nc2ccc(NC(=S)Nc3ccccc3)cc2c(=O)n1-c1ccccc1`
Result: > 100 µM

Q: Returns the measured TGI for the input compound. Input: `COc1cc(OC)c(/C=C/c2c3ccccc3cc[n+]2C)c(OC)c1`
Result: 8.01 µM

Q: Returns the measured TGI for the input compound. Input: Cc1cn(C2CC(O)C(CO[Si](C)(C)C(C)(C)C)OC2OC(C)C)c(=O)[nH]c1=O (stereo unspecified)
Result: > 100 µM

Q: Returns the measured TGI for the input compound. Input: `CN(CCO)c1ccc(N2Cc3ccccc3OC3=C2C(=O)c2c(O)ccc(O)c2C3=O)cn1`
Result: 1.8 µM

Q: Returns the measured TGI for the input compound. Input: `Cc1c(/C=N/NC(=O)c2ccc(Cl)cc2)c(=O)n(-c2ccccc2)n1C`
Result: > 100 µM

Q: Returns the measured TGI for the input compound. Input: C=C1C(=O)OC2CC(C)C3(O)CCC(=O)C3(C)CC12 (stereo unspecified)
Result: 84.3 µM

Q: Returns the measured TGI for the input compound. Input: `[N-]=[N+]=Nc1cc(=O)[nH]nc1-c1ccccc1`
Result: > 100 µM

Q: Returns the measured TGI for the input compound. Input: `CCOC(=O)/C=C/[C@H](O[Si](CC)(CC)CC)C(C)(C)C`
Result: > 100 µM

Q: Returns the measured TGI for the input compound. Input: `CN[C@@H](C)[C@@H](NC)c1ccccc1`
Result: > 100 µM

Q: Returns the measured TGI for the input compound. Input: `CC1=NC(=Cc2cc(Br)cc(Br)c2)C(=O)N1n1c(-c2ccccc2)nc2ccccc2c1=O`
Result: > 100 µM

Q: Returns the measured TGI for the input compound. Input: `CC(=O)O[C@H]1CC[C@@]2(C)C(=CC[C@@H]3[C@@H]2CC[C@]2(C)NC(=O)/C(=C\c4ccccc4)C[C@@H]32)C1`
Result: 44.3 µM

Q: Returns the measured TGI for the input compound. Input: `O=C1C=CC(=O)c2c1ccc1c3ccccc3n(-c3cccc([N+](=O)[O-])c3)c21`
Result: > 10 µM

Q: Returns the measured TGI for the input compound. Input: CCOC(=O)C1(C/C=C/CBr)CCc2ccccc2C1=O (stereo unspecified)
Result: 22.6 µM

Q: Returns the measured TGI for the input compound. Input: O=C(O)CC(NC(=O)CP(=O)(O)O)C(=O)O (stereo unspecified)
Result: > 10000 µM

Q: Returns the measured TGI for the input compound. Input: COC(=O)CC1C=CC(C)(OC)OO1 (stereo unspecified)
Result: > 100 µM

Q: Returns the measured TGI for the input compound. Input: `CN(C)c1ccc(/C=N\NC(=O)Nc2cccc3ccccc23)cc1`
Result: 32.3 µM

Q: Returns the measured TGI for the input compound. Input: `Cc1cc(C)c(C(=O)c2nnc3ccccc3c2N)c(C)c1`
Result: 86.3 µM

Q: Returns the measured TGI for the input compound. Input: `COC(=O)[C@H]1C=C[C@@H](C)n2c(=O)c3cc4ccccc4cc3c(=O)n21`
Result: > 100 µM
